Test system: OVCAR-8 ovarian
Experiment: NCI tumour cell line growth inhibition, 48 h; in the data active = GI50 below about 0.43 µM; inactive = the rest
Valid outcomes are listed here; reply with one: class 1 (active), class 0 (inactive)

[[record]]
molecule = "COc1cc2c(cc1OCc1ccccc1)N=C[C@@H]1C[C@@H](F)CN1C2=O"
class_assignment = "class 0"


Hello, I am checking results. What call was entered for COc1cccc2c1C(=O)c1c(O)c3c(c(O)c1C2=O)C[C@@](O)(C(C)=O)C[C@@H]3OC1CC(N(C)C)C(O)C(C)O1 (some centres undefined) ? class 1

Name the outcome recorded for `Cc1ccc(-c2c3c(N)nc(-c4ccncc4)nc3nc3c2c(C)nn3-c2ccccc2)cc1` in the assay. class 0

In this assay, the call recorded for Nc1cccc2c1CN(C1CCC(=O)NC1=O)C2=O (centres undefined) was what? class 0

Dear all, I need the recorded test outcome for `Oc1[nH]c2ccc(Cl)cc2c1/C=c1/ccc2c(c1)N=C(c1ccc(C(F)(F)F)cc1)N=2` , thank you. class 0

---

System: MOLT-4 leukemia
Assay: NCI tumour cell line growth inhibition, 48 h
In this section, each of the molecules is paired with its reported TGI.

Field: example entries. Status: answers known.
[[record]]
molecule = "CC1C(O)[C@@]2(OC[C@@]34C(=O)CC5(O)[C@H](CCC6Cc7nc8c(nc7C[C@]65C)CC5CC[C@@H]6C7=C[C@H]9O[C@@]%10(O[C@@](C)(CO)C[C@@H]%10O)C(C)[C@@]9(O)[C@]7(C)[C@@H](O)CC6[C@]5(C)C8)C3=CC[C@H]4C2C)OC1(C)C (stereo partly drawn)"
parameter = "TGI"
experimental_value = "< 0.000355 µM"

[[record]]
molecule = "Cc1cc(O)c2cc3c(O)c(O)ccc3cc2c1"
parameter = "TGI"
experimental_value = "5.75 µM"

[[record]]
molecule = "c1csc(-c2sc(-c3ccsc3)cc2Cc2ccsc2)c1"
parameter = "TGI"
experimental_value = "> 10 µM"

[[record]]
molecule = "[CH3][Sn]([CH3])([CH3])[O]C(=O)C(O)c1ccccc1 (stereo not drawn)"
parameter = "TGI"
experimental_value = "> 100 µM"

[[record]]
molecule = "CCOC(=O)c1ncn2c1[nH]c(=O)c1ccccc12"
parameter = "TGI"
experimental_value = "> 100 µM"

[[record]]
molecule = "CC(=O)c1c2c(cc3c1CC1(C3)Cc3ccc4c(c3C1=O)CCC4)CCC2 (stereo not drawn)"
parameter = "TGI"
experimental_value = "> 100 µM"


Give measured TGI for Cc1ccc(S(=O)(=O)N/N=C2/C3C(CC2(C)C)C2(C)CCCC3(C)C2O)cc1 (stereo not drawn) (MOLT-4 leukemia). 57.6 µM

Answer with TGI of `CC1(C)C(=O)CCC(=O)C(C)(C)C2=CC=C(O2)C(C)(C)C(=O)CCC(=O)C(C)(C)C2=CC=C1O2` measured for MOLT-4 leukemia. > 100 µM

---

System: SN12C renal
Experiment: NCI tumour cell line growth inhibition, 48 h
Measured TGI by item

[[record]]
compound = "CC1C(O)[C@@]2(OC[C@@]34C(=O)CC5(O)[C@H](CCC6Cc7nc8c(nc7C[C@]65C)CC5CC[C@@H]6C7=C[C@H]9O[C@@]%10(O[C@@](C)(CO)C[C@@H]%10O)C(C)[C@@]9(O)[C@]7(C)[C@@H](O)CC6[C@]5(C)C8)C3=CC[C@H]4C2C)OC1(C)C (stereo partly drawn)"
parameter = "TGI"
experimental_value = "> 3.55 µM"


Report TGI, nothing else, for this compound: `CCc1cccc(C(C)C)c1NC1=C([n+]2ccc(C)cc2)C(=O)c2ccccc2C1=O` 8.35 µM

Identify TGI associated with the compound `O=C(O)c1ccccc1-c1ccccc1C(=O)Nc1ccc2c(c1)Cc1ccccc1-2` > 100 µM

---

Test system: BT-549 breast
Assay: NCI tumour cell line growth inhibition, 48 h; in the data active means GI50 below about 0.43 µM; inactive means the rest
Respond with a class label; see active, inactive

[[record]]
compound = "CCCCCCCCCCCCNC(=O)[C@H]1CSC(c2cc(Br)cs2)N1 (some centres undefined)"
target_or_system = "BT-549 breast"
class_assignment = "inactive"


How was `CCOC(=O)C1=C(C)NC(C)=C(C(=O)OCC)C1c1cc(Br)c(O)c(OC)c1` classified in this test? inactive

How did this test come out for `O=C(CCCCCNC1=CC(=O)c2ccccc2C1=O)NCCC[Te]c1ccccc1` ? active

How did this test come out for `O=c1c(-c2ccc3c(c2)OCO3)coc2c(CO)c(O)ccc12` ? inactive

---

Tested on: IGROV1 ovarian
Assay: NCI tumour cell line growth inhibition, 48 h
Catalogue of compounds with associated TGI

[[record]]
compound = "CC(=O)C(CN(C)Cc1ccccc1)C(c1ccccc1)c1c(O)c2ccccc2oc1=O (stereo not drawn)"
parameter = "TGI"
experimental_value = "> 100 µM"

[[record]]
compound = "O=C(Nc1ccccc1)c1cc2c(cc1Cl)SC(NNCCO)=NS2(=O)=O"
parameter = "TGI"
experimental_value = "> 100 µM"

[[record]]
compound = "CN(C(=O)C12C3C4C1C1C2C3C41C(=O)N(C)C(C)(C)C)C(C)(C)C (stereo not drawn)"
parameter = "TGI"
experimental_value = "> 50 µM"


Fill in reported TGI for this entry: `Cc1ccc(C)c(NC(=O)C(=O)CC(=O)c2cccc3ccccc23)c1` > 100 µM

Supply reported TGI belonging to this compound: `O=C1NC(=O)C(N2CCc3ccccc32)=C1c1ccc(Cl)cc1` > 25 µM

Supply TGI value. Item: `Cc1ccc(-c2c3c(N)nc(-c4ccncc4)nc3nc3c2c(C)nn3-c2ccccc2)cc1` > 37.5 µM

# return recorded TGI for input `O=S1CCN(Cc2ccc(-c3ccc4ncnc(Nc5ccc(OCc6ccccc6)c(F)c5)c4c3)o2)CC1` > 25 µM

Find the measured TGI of `COC(=N)c1ncn(Cc2ccccc2)c1N` and report it. > 100 µM

Tell us which TGI value is on record for `O=S(=O)(c1ccccc1)n1cnc(CCc2ccccc2)n1` > 100 µM

Tell us which TGI value is on record for `COC(=O)CSc1n[nH]c(-c2ccccc2)n1` > 100 µM

Input `O=NN(CCCl)C(=O)Nc1ccc(Cl)c(Cl)c1` , output reported TGI. > 100 µM

Tell me TGI reported for `O=c1c2cc(Br)ccc2[nH]c(=S)n1-c1ccccc1` > 100 µM

Specify measured TGI for `O=C1c2ccccc2-c2c1c1c(O)cccc1n2CCCc1ccccc1` . > 100 µM

---

Test system: OVCAR-4 ovarian
Assay: NCI tumour cell line growth inhibition, 48 h
PARAMETER: GI50

Example results:
[[record]]
chemical_smiles = "CCCCCCCCn1ccc2cc(NC(=O)Cn3cc(CN4CCC(C)CC4)nn3)ccc21"
parameter = "GI50"
experimental_value = "2.07 µM"

[[record]]
chemical_smiles = "O=c1c(-c2ccc3c(c2)OCO3)coc2c(CO)c(O)ccc12"
parameter = "GI50"
experimental_value = "3.39 µM"


API: the following record is the query input.
Find the measured GI50 of `Cc1cc(Br)c2nsnc2c1[N+](=O)[O-]` and report it. 4.73 µM

---

Test system: U251 CNS
Assay: NCI tumour cell line growth inhibition, 48 h
# key: entry, value: TGI

Answered cases to consult:
[[record]]
compound = "CC(=O)C(CN(C)Cc1ccccc1)C(c1ccccc1)c1c(O)c2ccccc2oc1=O (stereo not drawn)"
experimental_value = "> 100 µM"

[[record]]
compound = "OC1=CN=C(C2CC2)Oc2ccccc21"
experimental_value = "> 100 µM"


We now examine a further compound.
Give TGI only, for `COc1cc(-c2nccc3[nH]c(-c4cccc5[nH]ccc45)nc23)cc(OC)c1OC` , using U251 CNS data. 13 µM

---

Tested on: HCT-15 colon
Assay: NCI tumour cell line growth inhibition, 48 h; in the data active = GI50 below about 0.43 µM; inactive = the rest
Use one of these outcomes when replying: active, inactive

// below: answered compounds
[[record]]
compound = "O=C1/C(=C\\c2ccc([N+](=O)[O-])cc2)CS(=O)(=O)C/C1=C/c1ccc([N+](=O)[O-])cc1"
class_assignment = "active"

[[record]]
compound = "Cc1ccc(NC(C(=O)c2ccccc2)c2ccccc2)cc1 (stereo not drawn)"
class_assignment = "inactive"


Read the next record carefully.
// outcome(item) with item = CCCCCCCCCCCCNC(=O)[C@H]1CSC(c2cc(Br)cs2)N1 (stereo partly drawn) inactive

---

The molecules listed here are annotated with their TGI.
System: SF-268 CNS
Assay: NCI tumour cell line growth inhibition, 48 h

Give a short answer stating reported TGI for CC(=O)c1c2c(cc3c1CC1(C3)Cc3ccc4c(c3C1=O)CCC4)CCC2 (stereo not drawn) . > 100 µM

# return recorded TGI for entry CC(=O)C1=C(C)N(c2ccc(C)cc2)C2(O)C=CC(=O)C3=C(O)c4ccccc4C(=O)C312 (stereo not drawn) 62.4 µM

Hello, please tell me recorded TGI for this one: `O=C(Nc1ccc(Cl)cc1Cl)c1cc2nc3ccccc3c(=O)n2c2ccccc12` > 10 µM

src = PubChem BioAssay (NCI)
